Target sequence: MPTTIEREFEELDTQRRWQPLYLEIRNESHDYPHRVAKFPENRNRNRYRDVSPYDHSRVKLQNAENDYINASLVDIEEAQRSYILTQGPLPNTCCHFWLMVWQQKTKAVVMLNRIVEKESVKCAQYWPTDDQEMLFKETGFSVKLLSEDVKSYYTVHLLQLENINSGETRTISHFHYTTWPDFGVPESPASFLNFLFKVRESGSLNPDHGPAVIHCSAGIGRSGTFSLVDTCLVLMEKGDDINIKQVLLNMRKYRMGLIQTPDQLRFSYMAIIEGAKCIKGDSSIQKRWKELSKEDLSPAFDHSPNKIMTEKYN
# Lookup of reported IC50 keyed by entry
Readout Kind: IC50

[[record]]
compound = "O=c1sn(CCOc2ccc([N+](=O)[O-])cc2)c(=O)n1Cc1ccccc1 [K73]"
readout_value = "324 nM"

[[record]]
compound = "O=c1sn(-c2cccc3ccccc23)c(=O)n1Cc1ccccc1 [NP-12]"
readout_value = "3230 nM"


* * *

Target sequence: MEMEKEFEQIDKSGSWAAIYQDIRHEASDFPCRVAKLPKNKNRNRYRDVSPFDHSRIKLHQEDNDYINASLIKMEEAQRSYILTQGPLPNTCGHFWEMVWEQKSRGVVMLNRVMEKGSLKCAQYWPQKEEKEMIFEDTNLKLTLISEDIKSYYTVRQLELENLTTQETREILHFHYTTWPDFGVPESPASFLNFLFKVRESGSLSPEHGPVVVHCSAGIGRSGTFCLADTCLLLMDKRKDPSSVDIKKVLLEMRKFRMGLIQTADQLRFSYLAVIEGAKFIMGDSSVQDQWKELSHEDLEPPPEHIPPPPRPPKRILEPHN
# Lookup of reported IC50 keyed by entry
Readout Kind: IC50 (µM)

[[record]]
chemical_smiles = "O=c1sn(CCOc2ccc([N+](=O)[O-])cc2)c(=O)n1Cc1ccccc1"
readout_kind = "IC50"
readout_unit = "µM"
readout_value = 4.27

[[record]]
chemical_smiles = "O=c1sn(-c2cccc3ccccc23)c(=O)n1Cc1ccccc1"
readout_kind = "IC50"
readout_unit = "µM"
readout_value = 4.66

